# Tested on: SK-OV-3
# assayComment: NCI tumour cell line growth inhibition, 48 h
Calls of active or inactive are those of the source. Rule as the data show it: active = GI50 up to about 1.1 µM and inactive = higher.
measurementType: GI50

structureSmilesString | targetOfAssay | measurementType | result
NCC(=O)Nc1ccc(Cl)cc1C(=O)c1ccc[nH]1 | SK-OV-3 | GI50 | > 100 µM (inactive)
CC(=O)O[C@H]1C(=O)[C@@]2(C)[C@H]([C@H](OC(=O)c3ccccc3)[C@]3(O)C[C@H](OC(=O)[C@H](O)[C@@H](NC(=O)c4ccccc4)C4CCCCC4)C(C)=C1C3(C)C)[C@]1(OC(C)=O)CO[C@@H]1C[C@@H]2O | SK-OV-3 | GI50 | < 0.01 µM (active)
COc1cccc(C(=O)Nc2c3ccccc3nc3ccccc23)c1OC | SK-OV-3 | GI50 | 51.9 µM (inactive)
Cc1cc(CCC(=O)NCCNc2c3ccccc3nc3ccccc23)cc(C)c1O[Si](C)(C)C(C)(C)C | SK-OV-3 | GI50 | 1.61 µM (inactive)
CCCCC/C=C\C=C\CCCCCCCCC(=O)OC | SK-OV-3 | GI50 | > 100 µM (inactive)
Cc1ccc(NCCN(C)C)c2c(=O)c3cc(O)ccc3oc12 | SK-OV-3 | GI50 | 13.4 µM (inactive)

----------
# Tested on: HT-29
# assayComment: NCI tumour cell line growth inhibition, 48 h
Active and inactive are the calls of the source. Rule as the data show it: active = GI50 up to about 1.1 µM and inactive = higher.
measurementType: GI50

molecule | result
NNC(=O)C(=O)N/N=C1\CCCC1C(=O)CCC(=O)Nc1cccc(Cl)c1 (stereo not given) | > 100 µM (inactive)
Cc1cc(C)cc(C(=N)c2ccccc2Cc2cccc3ccccc23)c1 | 9.66 µM (inactive)
CCC(C)N1CN(c2ccccc2)C2(CCN(CCCSc3ccc(F)cc3)CC2)C1=O (stereo not given) | 2.15 µM (inactive)
COCCOCC(=O)N(CCn1ccc(NC(c2ccccc2)(c2ccccc2)c2ccccc2)nc1=O)CCn1cnc2nc(N)[nH]c(=O)c21 | > 100 µM (inactive)
COC(=O)CC[C@@H](NC(=O)C(C)NC(=O)COC1C(O)C(COC(=O)CCCCCCCCCCNC(=O)c2ccc([N+](=O)[O-])c3[nH]c4cc(Br)ccc4c(=O)c23)OC(OCc2ccccc2)C1NC(C)=O)C(N)=O (stereo not given in full) | > 100 µM (inactive)
C=CCNC(=O)NC1=CSC2=NC(=O)C3(NN12)c1ccccc1-c1ccccc13 | > 10 µM (inactive)
COC(=O)C1CC2(CCC1=O)Cc1ccccc1C2=O (stereo not given) | > 100 µM (inactive)
CCOC(=O)C(=Cc1[nH]c2ccccc2c1-c1c[nH]c2ccccc12)C(=O)OCC | 5 µM (inactive)
N#C/C(=C\NC(=S)c1ccncc1)c1nc2ccccc2s1 | > 100 µM (inactive)
O=C(Cc1ccccc1)NCCCN(CCCCN(CCCNC(=O)Cc1ccccc1)C(=O)OCc1ccccc1)C(=O)OCc1ccccc1 | > 24.8 µM (inactive)

----------
# System: HL-60
# assayComment: NCI tumour cell line growth inhibition, 48 h
Activity calls are given as the source filed them. Cut-off read from the data, not from the text of the source: active = GI50 up to about 1.1 µM and inactive = higher.
Classes used: active, inactive

compound | className
O=C(O)CSc1ccccc1C(=O)O | inactive
O=C(O)/C=C\C(=O)Nc1ccc(S(=O)(=O)c2ccc(NC(=O)/C=C\C(=O)O)cc2)cc1 | inactive
O=S(=O)(N/N=C\c1c2ccccc2[n+]([O-])c2ccccc12)c1ccc(Cl)cc1 | inactive
C/C=C1\CN2CCc3c([nH]c4ccccc34)C2CC1C(=O)OC (configuration not stated) | inactive
CN(C)c1ccc(/C=C(\NC(=O)c2ccccc2)C(=O)NCC(=O)O)cc1 | active
CCc1cc2c(c3c1CCCC3=O)CC1(Cc3ccc(C(=O)OC)cc3C1)C2 (configuration not stated) | inactive
CC(=O)O[C@@H]1O[Si](C(C)(C)C)(C(C)(C)C)[C@H](C)[C@H]1C | inactive

----------
# Tested on: MOLT-4
# assayComment: NCI tumour cell line growth inhibition, 48 h
The source made the active and inactive calls. No stated cut-off is given here; in the data, active = GI50 up to about 1.1 µM and inactive = higher.
Classes used: label 1 = active, label 0 = inactive

compound | className
CC(=O)OC1COC(Nn2c(=O)[nH]c3ccccc3c2=O)C(OC(C)=O)C1OC(C)=O (stereo not drawn) | label 0
Cc1ccc2cccc(-c3cccc4ccccc34)c2n1 | label 0
Oc1cccnc1CN1CCCCC1 | label 0
CCOC(=O)C(=Cc1[nH]c2ccccc2c1-c1c[nH]c2ccccc12)C(=O)OCC | label 1
COC(=O)C#Cc1cccc(OC)c1OC | label 0
CC1(C)C(O)OC(O)C1(C)C (stereo not drawn) | label 0
O=c1/c(=C/c2ccco2)sc2nc3ccccc3n12 | label 0
CC(=O)O[C@H]1C(=O)[C@@]2(C)[C@H]([C@H](OC(=O)c3ccccc3)[C@]3(O)C[C@H](OC(=O)[C@H](O)[C@@H](NC(=O)C(C)(O)C(C)O)c4ccccc4)C(C)=C1C3(C)C)[C@]1(OC(C)=O)CO[C@@H]1C[C@@H]2O (stereo partly drawn) | label 1

----------
# Test system: Malme-3M
# assayComment: NCI tumour cell line growth inhibition, 48 h
The source made the active and inactive calls. Cut-off read from the data, not from the text of the source: active = GI50 up to about 1.1 µM and inactive = higher.

compound | targetOfAssay | GI50
CCOC(=O)C(=Cc1[nH]c2ccccc2c1-c1c[nH]c2ccccc12)C(=O)OCC | Malme-3M | 18.7 µM (inactive)
COc1cccc(N2CCc3c(C)c(C#N)c4nc5ccccc5n4c32)c1 | Malme-3M | > 100 µM (inactive)
COC1OC(C)C2OC(C)(C)OC2C1OC(C)=O (stereo not given) | Malme-3M | > 100 µM (inactive)
COc1cc2c(cc1OCCCOc1cc(-c3ccc(F)cc3)nc(C)n1)N=C[C@@H]1CCCN1C2=O | Malme-3M | 12.8 µM (inactive)
O=[N+]([O-])c1ccc(S(=O)(=O)Cc2ccccc2)c([N+](=O)[O-])c1 | Malme-3M | 2.91 µM (inactive)

----------
# Test system: HT-29
# assayComment: NCI tumour cell line growth inhibition, 48 h
The source made the active and inactive calls. Rule as the data show it: active = GI50 up to about 1.1 µM and inactive = higher.
measurementType: GI50

compound | result
CCOC(=O)c1nc2ccccc2nc1Oc1ccc(C#N)cc1 | > 100 µM (inactive)
O=C(O)C12C3C4C1C1C2C3C41I (stereo not drawn) | > 100 µM (inactive)
CC1N[B@@-](C)(c2ccc(C(F)(F)F)cc2)OC1c1ccccc1 (stereo partly drawn) | 72.1 µM (inactive)
CCNC1(c2cccc(C)c2)OC(C)(C)c2cccc3cccc1c23 (stereo not drawn) | 14 µM (inactive)
CCN(CC)/[N+]([O-])=N/OCOC(C)=O | > 100 µM (inactive)
CCC(c1ccc2cc(O)ccc2c1)C(C)(C)C(=O)O (stereo not drawn) | > 100 µM (inactive)
CSc1nc(NC2OCC(O)C(O)C2O)c(N)c(=O)[nH]1 (stereo not drawn) | > 100 µM (inactive)
CN(C)CCNC(=O)c1cccc2cc3ccc4ccccc4c3nc12 | 0.0516 µM (active)
NS(=O)(=O)c1ccc(/N=N/c2cnc(O)c(O)c2)cc1 | > 100 µM (inactive)
O=C([O-])C1([n+]2c(-c3ccccc3)cc(-c3ccccc3)cc2-c2ccccc2)CC1 | 48.8 µM (inactive)
OC1CC2CCC(C1)N2CCCN1c2ccccc2Sc2ccc(Cl)cc21 (stereo not drawn) | 1.67 µM (inactive)
Cc1ccc2nc(-c3ccc(-n4c(C)nc(=O)c(-c5ccc(F)cc5)c4C)cc3)sc2c1 | 13.2 µM (inactive)
COc1ccccc1NC(=O)CC(=O)N1N=C(C)C(/N=N/c2ccc(C(=O)O)cc2)C1=O (stereo not drawn) | 23.8 µM (inactive)
CN(C)CCCNCc1cccc2ccccc12 | > 100 µM (inactive)
O=[N+]([O-])c1ccc(S(=O)(=O)Cc2ccccc2)c([N+](=O)[O-])c1 | 2.18 µM (inactive)
CC(=S)NC1C(Oc2ccc3c(C)cc(=O)oc3c2)OC(CO)C(O)C1O (stereo not drawn) | > 100 µM (inactive)
NC(=O)C(c1ccccc1)N1OC2C(=O)N(Cc3ccccc3)C(=O)C2C1c1cccc(Oc2ccc(Cl)cc2)c1 (stereo not drawn) | 18.2 µM (inactive)
CN1C(=O)[C@@]2(C=CC3(CC2)OCCO3)c2ccccc21 | > 50 µM (inactive)
CC(=O)Nc1nc(O)c2nc(C=O)cnc2n1 | > 100 µM (inactive)
O=S(=O)(N/N=C\c1c2ccccc2[n+]([O-])c2ccccc12)c1ccc(Cl)cc1 | > 100 µM (inactive)
COc1cc2c(cc1OCCCOc1cc(-c3ccc(F)cc3)nc(C)n1)N=C[C@@H]1CCCN1C2=O | 23.1 µM (inactive)
COC(C/C(=C/CO[Si](C(C)C)(C(C)C)C(C)C)C(=O)N(COCC[Si](C)(C)C)c1ccccc1I)OC | 60.3 µM (inactive)
CC1(C)[C@@H]2C[C@H]1c1cnc(-c3ccccn3)cc1[C@H]2C(O)[C@@H]1c2cc(-c3ccccn3)ncc2[C@H]2C[C@@H]1C2(C)C (stereo partly drawn) | 0.112 µM (active)
CC(=O)OC1COC(Nn2c(=O)[nH]c3ccccc3c2=O)C(OC(C)=O)C1OC(C)=O (stereo not drawn) | > 100 µM (inactive)
c1cc(NC2=NCCO2)c2c(c1)OCO2 | > 100 µM (inactive)
COc1ccc(-c2oc3c(CC(=O)O)cccc3c(=O)c2OC)cc1 | > 100 µM (inactive)
NC(=O)COc1ccc(Br)cc1Br | > 100 µM (inactive)
O=Cc1c[nH]c2c(=O)[nH]cnc12 | > 100 µM (inactive)
